Data provenance is PubChem BioAssay AID1814.

Assay: Activators via SNCA 5'UTR binding, MLPCN (AID 1814)
Conditions: alpha-synuclein 5'UTR reporter, activators screen; tested at 7.5 µM
Hit rate of the full screen: of about 300,000 compounds, about 22,000 (7.3%) were called active. Inconclusive results (about 2%) are left out. Rule as the data show it: active = activity score below about -60%; inconclusive = mostly about -28% to -61%; inactive = positive scores. Only a selection was taken, and actives are over-represented in it overall.
Please reply with one of these outcomes: active, inactive

N#Cc1cccc(NC(=O)COC(=O)c2ccccc2C(=O)c2ccc(Cl)c([N+](=O)[O-])c2)c1 = active
COc1cccc(/C=C/c2ccc3ccccc3n2)c1OC(C)=O = inactive
COc1ccc(Nc2nnc(C)c3ccccc23)cc1 = active
C=CCN(C(=O)Nc1ccc2oc(C)nc2c1)c1ccccc1 = active

Q: Query: recorded result category for Oc1ccc2ccccc2c1N=Nc1nccs1 in this test
Result: inactive

Q: And then CCn1c(=O)c2cc(C(=O)Nc3cccc(C(C)=O)c3)sc2c2ccccc21 , what is it?
Result: active

---

Experiment: Activators via SNCA 5'UTR binding, MLPCN (AID 1814)
Settings: alpha-synuclein 5'UTR reporter, activators screen; active compounds read low; tested at 7.5 µM
Among all 300,000 compounds or so, about 22,000 (7.3%) were called active. Roughly 2% stayed inconclusive and do not appear here. Shown is part of a subset that was picked to be rich in actives.
measured-property: activity score (%)
Unit % implied. Number only.

CCN(CC)c1ccc(C(=O)OCC(=O)c2ccco2)cc1 = -179

Q: May I ask what activity score has been recorded for O=C(/C=C/c1ccc([N+](=O)[O-])o1)NNC(=O)c1ccc(F)cc1 ?
Result: -94.3

Q: And then C=CCc1c(C)nc2cc(-c3ccccc3)[nH]n2c1=O , what is it?
Result: -102

Q: And then CC(C)CCC(C)NC(=O)c1ccc2nccnc2c1 (stereo unspecified) , what is it?
Result: -75.9

Q: And then COc1ccc(/C(O)=C2/C(=O)C(=O)N(CCCN(C)C)C2c2ccccc2)cc1OC (stereo unspecified) , what is it?
Result: -86.9

Q: And then O=C1c2ccccc2NC(c2ccc(-c3cccc(Cl)c3)o2)N1O (stereo unspecified) , what is it?
Result: -145

---

Listing of entries alongside the reported activity score.
Experiment: Activators via SNCA 5'UTR binding, MLPCN (AID 1814)
Details: alpha-synuclein 5'UTR reporter, activators screen; active compounds read low; tested at 7.5 µM
The campaign covered roughly 300,000 compounds. About 22,000 (7.3%) were called active. Roughly 2% stayed inconclusive and do not appear here. The full list was thinned out, with actives kept by preference.
Unit % implied. Number only.

Some solved entries appear below for comparison.
C=CCn1c(SCC(N)=O)nnc1-c1cc2c(s1)CCC(CC)C2 (stereo not given) = -137
COc1ccc(NC(=O)C2COc3ccccc3O2)cc1 (stereo not given) = -133
Cc1cccc(CSc2ccc(-c3cccs3)nn2)c1 = -110
C/C(=C\c1ccco1)CN1CCC(N2CCC(C(=O)N3CCOCC3)CC2)CC1 = -135
N#Cc1nc(Cc2ccccc2)oc1NCCc1ccccc1 = -147
O=C(c1ccccc1)c1ccc(OC(=O)N2CCCC2)cc1 = -65.8

Q: May I ask what activity score has been recorded for COC(=O)c1ccc(-n2cnc3ccccc32)nc1 ?
Result: -117

---

Listing of entries alongside the reported activity score.
Experiment: Activators via SNCA 5'UTR binding, MLPCN (AID 1814)
Details: alpha-synuclein 5'UTR reporter, activators screen; active compounds read low; tested at 7.5 µM
Out of some 300,000 compounds screened, about 22,000 (7.3%) were called active. About 2% were inconclusive and are not listed. Many of the other results were omitted from the sample, so actives are more common in it than they were.
Unit % implied. Number only.

Cc1c(C(=O)Nc2ccccn2)oc2ccc(Br)cc12 = -122
Oc1ccc(/C=N/Nc2ccc(C(F)(F)F)cn2)cc1O = -195
O=C(Nc1ccc2c(c1)OCO2)C1CC(c2c(F)cccc2Cl)=NO1 (stereo unspecified) = -147
S=C(Nc1ccc(Br)cc1Cl)N1CCC2(CC1)OCCO2 = -70.7
Cc1sc(NC(=O)c2ccc3ncsc3c2)c(C(N)=O)c1C = -130

Proceeding to the next compound to report its activity score.
Q: May I ask what activity score has been recorded for CC(=O)c1ccc(NC(=O)c2sc3nc4n(c(=O)c3c2C)CCCCC4)cc1 ?
Result: -89.5

---

Assay: Activators via SNCA 5'UTR binding, MLPCN (AID 1814)
Conditions: alpha-synuclein 5'UTR reporter, activators screen; active compounds read low; tested at 7.5 µM
Among all 300,000 compounds or so, about 22,000 (7.3%) were called active. Roughly 2% stayed inconclusive and do not appear here. The sample as a whole holds a higher share of actives than the screen did.
Listing of entries alongside the reported activity score.
Unit % implied. Number only.

Cc1nn(-c2ccccc2)c(Cl)c1/C=C/C(=O)c1ccc(O)cc1 = -125
Cc1ccc2nc(/C(C#N)=C\c3ccc(OC(=O)c4cccs4)cc3)[nH]c2c1 = -283
O=C1NC(c2ccncc2)Nc2sc3c(c21)CCCC3 (configuration not stated) = -66.2
CCn1c(CNc2ccc(OC)cc2)nnc1SCC(=O)c1ccc(OC)cc1 = -63.6
CC(C)c1ccc(/C=C2\NC(=O)NC2=O)cc1 = -66.1

Q: May I ask what activity score has been recorded for Cn1c(COc2ccc(Cl)cc2)nc2ccccc2c1=O ?
Result: -91.8

Q: And then Cc1ccc(NC(=O)Nc2cccc(C(F)(F)F)c2)nc1 , what is it?
Result: -115

Q: And then CN1C(=O)/C(=C\c2cc(Br)cs2)c2ccccc21 , what is it?
Result: -188

Q: And then O=C(NC(=S)Nc1ccccc1C(=O)O)c1ccc(-c2ccc(Br)cc2)o1 , what is it?
Result: -123

Q: And then O=C(Nc1ccccc1)Nc1ccc(C(F)(F)F)cn1 , what is it?
Result: -120

Q: And then COc1ccc(C(=O)NCCSc2ccccc2C)cc1 , what is it?
Result: -113

Q: And then CCn1c(/C=C/c2ccc([N+](=O)[O-])o2)nc2ccccc2c1=O , what is it?
Result: -353

---

Experiment: Activators via SNCA 5'UTR binding, MLPCN (AID 1814)
Conditions: alpha-synuclein 5'UTR reporter, activators screen; active compounds read low; tested at 7.5 µM
Out of some 300,000 compounds screened, about 22,000 (7.3%) were called active. Another 2% or so got no clear call; they are omitted. This is one part of a sample in which actives are shown more often than they occur.
Listing of entries alongside the reported activity score.

Some solved entries appear below for comparison.
CC(=O)c1cccc(NC(=O)Nc2ccc(C)cc2)c1 = -144% (active)
O=C(c1cc(COc2c(F)cccc2F)on1)N1CCSCC1 = -165% (active)
CC(C)CC(=O)N/C(N)=N/c1nc2ccccc2s1 = -93.4% (active)
CCC(=O)Nc1nc2ccccc2n1Cc1ccccc1C = 65.5% (inactive)
O=C(CSc1cccc[n+]1[O-])c1ccc(-c2ccccc2)cc1 = -146% (active)

Q: May I ask what activity score has been recorded for CC1CCN(C(=S)c2ccc(-c3ccc(Cl)cc3Cl)o2)CC1 ?
Result: -91.3% (active)

Q: And then Cc1ccc(NC(=O)Nc2nnc(-c3ccncc3)s2)cc1 , what is it?
Result: -68% (active)

Q: And then CCC(NC(=O)c1cc(COc2ccc(F)c(F)c2)on1)c1ccncc1 (configuration not stated) , what is it?
Result: -78.1% (active)

Q: And then Cc1ccc(-c2nc(-c3cccnc3)sc2CC(=O)Nc2ccc(C)c(Cl)c2)cc1 , what is it?
Result: 54.1% (inactive)

Q: And then O=C(OCC(=O)c1cccs1)C1=COCCO1 , what is it?
Result: -103% (active)

Q: And then CCc1ccc(NC(=O)Nc2ccncc2)cc1 , what is it?
Result: -76.8% (active)

Q: And then O=C(c1cc(COc2ccc(F)cc2F)on1)N1CCOCC1 , what is it?
Result: -124% (active)

---

Test: Activators via SNCA 5'UTR binding, MLPCN (AID 1814)
Conditions: alpha-synuclein 5'UTR reporter, activators screen; active compounds read low; tested at 7.5 µM
About 22,000 (7.3%) of roughly 300,000 compounds were called active. Another 2% or so got no clear call; they are omitted. This excerpt belongs to a sample that is enriched for actives.
measured-property: activity score

Some solved entries appear below for comparison.
COc1ccc(-c2noc(-c3cccc(OC)c3OC)n2)cc1OC = -193% (active)
Cc1ccc(NC(=S)N2CCN(c3ncccn3)CC2)cc1C = -84.3% (active)

Q: May I ask what activity score has been recorded for O=C1C(C=NCC2CCCO2)=C(O)c2ccccc21 (stereo not given) ?
Result: -95.6% (active)

Q: And then Cc1nnc(N/N=C/c2ccccn2)[nH]c1=O , what is it?
Result: 117% (inactive)

Q: And then Cc1ccc(NC(=O)c2sc3nc(N)c(C#N)cc3c2N)cc1 , what is it?
Result: -133% (active)

Q: And then Cc1cccc(NC(=O)Cc2ccc(Br)cc2)n1 , what is it?
Result: -90.2% (active)

Q: And then O=C(Nc1ccccc1)c1ccccc1NC(=O)C(F)(F)F , what is it?
Result: -85.9% (active)
